- ASSAY_EXPLANATION: CCTE_Shafer_MEA_dev_per_burst_interspike_interval: CCTE's Neural Network Formation Assay for Burst Interspike Interval, Shafer Lab (AID 2284044);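 further: mean spike spacing inside bursts as AUC over recordings on days 5 7 9 12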
Calls of active or inactive are those of the source. How the source made its calls: active means hit-call score of the fitted dose curve at least 0.9, where 1 is the maximum; inactive means score below 0.9.
Outcome (select one): active, inactive

// query What classification did c1ccc2scnc2c1 end up with in this test?
// result inactive

// query Given N#CCCNCCC#N , state the outcome it received in this test.
// result inactive

// query Check the results log: what was the call for N[C@@H](CCC(=O)O)C(=O)O ?
// result inactive

// query Hi, sorry to bother you, what did the test record for C[C@]12CC[C@@H]3c4ccc(O)cc4CC[C@H]3[C@@H]1CC[C@@H]2O ?
// result inactive

// query Please state the recorded outcome for this molecule: CC/C(=C(\c1ccccc1)c1ccc(OCCN(C)C)cc1)c1ccccc1
// result active

// query State the result this test recorded for CC(C)Cc1ccc(C(C)C(=O)O)cc1 (stereo unspecified) .
// result inactive
